These data points were gathered from patent US11008334B2.

Listed here are compounds together with their documented percent covalent labeling at 10 µM.
Biological target: K-RasG12C (1-169) (Homo sapiens, UniProt P01116, G12C)
Construct: Un-tagged recombinant K-Ras G12C (1-169) at 4 μM in Buffer A; hexahistidine (cleaved yes); made in house; host or cells: Escherichia coli BL21 (DE)
Sequence (P01116 1-169 isoform P01116-2 G12C): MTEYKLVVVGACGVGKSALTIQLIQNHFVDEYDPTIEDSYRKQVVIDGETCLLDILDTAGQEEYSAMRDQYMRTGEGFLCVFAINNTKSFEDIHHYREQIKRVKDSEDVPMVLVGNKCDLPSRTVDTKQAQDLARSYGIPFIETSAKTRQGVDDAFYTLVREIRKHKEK
Experiment: Mass spectrometric screen for extent of covalent labeling
Assay type: binding
Conditions: 24 h, 10 micromolar, 24 hrs; read-out: Percent reduction in activity of compound at 10 micromolar relative to control (no compound), 24 hrs

• C=CS(=O)(=O)NC1CCN(C(=O)COc2cc(CCO)c(Cl)cc2Cl)CC1 = 20 to 40%
• C=CS(=O)(=O)NC1CCN(C(=O)COc2cc(-c3nn[nH]n3)c(Cl)cc2Cl)CC1 = ≤ 5%

**Q:** For the compound C=CS(=O)(=O)N1CCC2(CCN(C(=O)COc3ccc(Cl)cc3Cl)C2)C1 (stereo not drawn) [JO-02-74B] , what percent covalent labeling at 10 µM is on record?
**A:** 5 to 20%

**Q:** What about C=CS(=O)(=O)NC1CCN(C(=O)CNc2c(Cl)cc(Cl)c3nsnc23)CC1 [UP-I-185a] ?
**A:** > 60%

----------
Molecular target: K-RasG12C (1-169) (Homo sapiens, UniProt P01116, G12C)
Construct: Un-tagged recombinant K-Ras G12C (1-169) at 4 μM in Buffer A; hexahistidine (cleaved yes); made in house; host or cells: Escherichia coli BL21 (DE)
Test: Mass spectrometric screen for extent of covalent labeling
Assay type: binding
Details: 24 h, 10 micromolar, 24 hrs; read-out: Percent reduction in activity of compound at 10 micromolar relative to control (no compound), 24 hrs
Listed here are molecules together with their documented percent covalent labeling at 10 µM.

Please review the following examples before continuing.
- C=CS(=O)(=O)NC1CCN(C(=O)COc2c(Cl)cc(Cl)c3c2OC(C)(C)O3)CC1 [UP-I-177C]: 40 to 60%
- C=CS(=O)(=O)N1CCC2(CN(C(=O)COc3ccc(Cl)cc3Cl)C2)C1 [JO-02-74C]: 5 to 20%
- C=CS(=O)(=O)NC1CCN(C(=O)c2cc3cc(F)ccc3[nH]2)CC1 [JO-02-49B]: ≤ 5%
- C=CS(=O)(=O)NC1CCN(C(=O)COc2ccc(Cl)cc2CNC(C)=O)CC1: ≤ 5%
- C=CS(=O)(=O)NC1CCN(C(=O)COc2cc(C(=O)OC)c(Cl)cc2Cl)CC1: 5 to 20%
- C=CS(=O)(=O)NC1CCN(C(=O)COc2ccc(Cl)cc2Br)CC1: 20 to 40%
- C=CS(=O)(=O)NC1CCN(C(=O)COc2cc(N)c(Cl)cc2Cl)CC1: 5 to 20%
- C=CS(=O)(=O)NC1CCN(C(=O)Cn2ncc3ccccc32)CC1: ≤ 5%

**Q:** For the molecule C=CS(=O)(=O)NC1CCN(C(=O)C(C)Oc2cc(CN)c(Cl)cc2Cl)CC1 (centres unmarked) , what percent covalent labeling at 10 µM is on record?
**A:** ≤ 5%

**Q:** What about C=CS(=O)(=O)NC1CCN(C(=O)COc2ccc(Cl)cc2F)CC1 ?
**A:** ≤ 5%

**Q:** What about C=CS(=O)(=O)NC1CCN(C(=O)CSc2nc(C)cs2)CC1 [UP-I-165D] ?
**A:** ≤ 5%
